Measured values drawn from PubChem BioAssay (NCI) for this set.

Tested on: SF-295 CNS
Assay: NCI tumour cell line growth inhibition, 48 h
MEASUREMENT_KIND: TGI

INSERT INTO assay_data (molecule, result) VALUES
  ('CCCCCCCCCCCCOC1C(C(CC(=O)NCCN2CCCC2)NS(=O)(=O)c2cc(Cl)cc(Cl)c2)OC2OC(C)(C)OC21 (stereo not given)', '4.69 µM'),
  ('CCOC(=O)[C@@H]1ON2O[C@@H](OC3CCCC3(c3ccccc3)c3ccccc3)C[C@H]3OC(=O)[C@@H]1C32 (stereo not given in full)', '> 100 µM'),
  ('CC1=C(C(=O)Nc2ccccc2)C(c2ccc(C3C(C(=O)Nc4ccccc4)=C(C)NC(C)=C3C(=O)Nc3ccccc3)cc2)C(C(=O)Nc2ccccc2)=C(C)N1', '7.88 µM'),
  ('CC(O)CC(O)(C(F)(F)F)C(F)(F)F (stereo not given)', '> 10 µM'),
  ('Cc1cccc(N=C2NC(=O)C(CC(=O)Nc3cccc(C)c3C)S2)c1 (stereo not given)', '> 100 µM'),
  ('O=C(OCc1ccccc1)C(Cc1ccccc1)N(Cc1ccccc1)Cc1ccccc1 (stereo not given)', '> 100 µM'),
  ('S=C1SC2=Nc3ccccc3CN2C2=NCCN12', '> 100 µM'),
  ('Nc1nc(N)nc(CCCc2nc(N)nc(N)n2)n1', '> 100 µM'),
  ('O=C(Nc1ccc(-n2cc(-c3ccncc3)c(-c3ccc(O)c(Cl)c3)n2)cc1)Nc1cccc(Cl)c1Cl', '> 32.5 µM'),
  ('Cc1ccc(Nc2nnc(-c3ccc4c(c3)OCO4)o2)c(C)c1', '> 100 µM');

----------
System: SK-OV-3 ovarian
Assay: NCI tumour cell line growth inhibition, 48 h
MEASUREMENT_KIND: TGI

INSERT INTO assay_data (molecule, target_under_test, measurement_kind, result) VALUES
  ('CCOC(=O)Cn1c(=O)n(C)c(=O)c2c1ncn2Cc1ccccc1', 'SK-OV-3 ovarian', 'TGI', '> 100 µM'),
  ('O=C(CSC(c1ccccc1)c1ccccc1)N/N=C/c1ccco1', 'SK-OV-3 ovarian', 'TGI', '> 73 µM'),
  ('COc1cc(OCc2ccc3nc(OC)c(OC)nc3c2)cc(OC)c1OC', 'SK-OV-3 ovarian', 'TGI', '> 10 µM'),
  ('CN1CCN(c2ccc(Nc3ncc4cc(C#N)c(=O)n(C5CCCC5)c4n3)cc2)CC1', 'SK-OV-3 ovarian', 'TGI', '> 100 µM'),
  ('C=CCn1c2c(sc1=S)C(S)N=CN2 (configuration not stated)', 'SK-OV-3 ovarian', 'TGI', '> 100 µM'),
  ('N.N.NCCCCCCCCCN.O=C([O-])CC(=O)[O-].O=C([O-])CC(=O)[O-].[Pt+4].[Pt+4]', 'SK-OV-3 ovarian', 'TGI', '> 100 µM'),
  ('Cc1cc(/N=C/c2ccc(C#N)cc2)n(-c2ccccc2)n1', 'SK-OV-3 ovarian', 'TGI', '> 100 µM'),
  ('Cn1cc(-c2ccc(-c3cncc(Cl)c3N3CCC4(CCNC4=O)CC3)cc2)cn1', 'SK-OV-3 ovarian', 'TGI', '> 100 µM'),
  ('S=C1CC(c2ccccc2)Sc2ccc(Cl)cc2N1 (configuration not stated)', 'SK-OV-3 ovarian', 'TGI', '> 100 µM'),
  ('O=C1CCc2ccc3c(c21)CC1(Cc2ccccc2C1)C3', 'SK-OV-3 ovarian', 'TGI', '> 100 µM'),
  ('CC(C)(C)c1ccc(OCC(=O)O)c(Cl)c1', 'SK-OV-3 ovarian', 'TGI', '> 100 µM'),
  ('Cc1cn([C@H]2C[C@](C)(CO)N(C)O2)c(=O)[nH]c1=O', 'SK-OV-3 ovarian', 'TGI', '> 100 µM');
